Biological target: Melanocyte-stimulating hormone receptor (Homo sapiens)
Assay: Effective concentration against hMC1R using HEK293 cells was determined by measuring the cAMP accumulation
ATTRIBUTE MEASURED: pEC50
Value format note: pEC50 is -log10 of concentration (mol/L); just state the number.

Query: # get_value(readout='pEC50', item= `CCCC(=O)N[C@@H](Cc1c[nH]cn1)C(=O)N[C@H](Cc1ccc2ccccc2c1)C(=O)N[C@@H](CCCN=C(N)N)C(=O)N[C@@H](Cc1c[nH]c2ccccc12)C(=O)NCC(N)=O` )
Reply: 7.32

----------
# pEC50 per entry
Target: UniProt:P32245
Sequence (P32245 whole entry): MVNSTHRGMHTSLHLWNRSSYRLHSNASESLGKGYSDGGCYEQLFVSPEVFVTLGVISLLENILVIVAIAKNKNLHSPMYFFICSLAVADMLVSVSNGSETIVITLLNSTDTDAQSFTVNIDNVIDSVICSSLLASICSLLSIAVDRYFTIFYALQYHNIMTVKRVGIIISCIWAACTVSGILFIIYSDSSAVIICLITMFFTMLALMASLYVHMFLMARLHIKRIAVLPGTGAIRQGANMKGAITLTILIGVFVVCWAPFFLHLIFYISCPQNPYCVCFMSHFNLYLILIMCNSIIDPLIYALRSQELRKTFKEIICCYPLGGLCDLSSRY
Assay: Effective concentration against hMC4R using HEK293 cells was determined by measuring cAMP accumulation
Type: functional, cell-based
Peptide text beside a SMILES is read from it. * marks the point of attachment. Butyryl = CCCC(=O)*
Value format note: pEC50 is -log10 of concentration (mol/L); just state the number.

COMPOUND	pEC50
CCCC(=O)N[C@@H](Cc1c[nH]cn1)C(=O)NC(Cc1ccccc1)C(=O)N[C@@H](CCCN=C(N)N)C(=O)N[C@@H](Cc1ccc2ccccc2c1)C(=O)NCC(N)=O (single isomer, unassigned)	7.60
CCCC(=O)N[C@@H](Cc1c[nH]cn1)C(=O)NC(Cc1ccccc1)C(=O)N[C@@H](CCCN=C(N)N)C(=O)N[C@@H](Cc1cccc2ccccc12)C(=O)NCC(N)=O (single isomer, unassigned)	6.85
CCCC(=O)N[C@@H](Cc1c[nH]cn1)C(=O)N[C@@H](Cc1ccc(OC)cc1)C(=O)N[C@@H](CCCN=C(N)N)C(=O)N[C@@H](Cc1c[nH]c2ccccc12)C(=O)NCC(N)=O (Butyryl-HY(Me)RWG-NH2)	7.22
CCCC(=O)N[C@@H](Cc1cnc[nH]1)C(=O)N[C@@H](Cc1ccc(O)cc1)C(=O)N[C@@H](CCCNC(=N)N)C(=O)N[C@@H](Cc1c[nH]c2ccccc12)C(=O)NCC(N)=O (Butyryl-HYRWG-NH2)	5.94
CCCC(=O)N[C@@H](Cc1c[nH]cn1)C(=O)NC(Cc1ccc(OCC)cc1)C(=O)N[C@@H](CCCN=C(N)N)C(=O)N[C@@H](Cc1c[nH]c2ccccc12)C(=O)NCC(N)=O (single isomer, unassigned)	7.80

Shift focus to the following entry.
Query: So what pEC50 did `CCCC(=O)N[C@@H](Cc1cnc[nH]1)C(=O)N[C@@H](Cc1ccccc1)C(=O)N[C@@H](CCCNC(=N)N)C(=O)N[C@@H](Cc1c[nH]c2ccccc12)C(=O)NCC(N)=O` get with UniProt:P32245?
Reply: 7.70

----------
Target: Melanocyte-stimulating hormone receptor (Homo sapiens, UniProt Q01726)
Sequence (Q01726 whole entry): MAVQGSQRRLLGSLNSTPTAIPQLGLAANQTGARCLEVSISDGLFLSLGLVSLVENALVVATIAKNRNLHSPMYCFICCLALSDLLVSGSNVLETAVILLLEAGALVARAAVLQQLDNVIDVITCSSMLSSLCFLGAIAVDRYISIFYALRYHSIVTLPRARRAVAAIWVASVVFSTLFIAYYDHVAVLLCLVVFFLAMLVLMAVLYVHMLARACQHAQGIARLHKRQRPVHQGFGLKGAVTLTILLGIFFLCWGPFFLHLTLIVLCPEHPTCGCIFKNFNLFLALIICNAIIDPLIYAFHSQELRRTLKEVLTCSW
Test: Inhibitory concentration of compound was determined against hMC1R through displacement of NDP-MSH radioligand using HEK293 cells
Square brackets hold non-standard residues; d marks the D form. Peptide text beside a SMILES is read from it. * marks the point of attachment. Phe(4-Br) = N[C@@H](Cc1ccc(Br)cc1)C(=O)O; Phe(4-Cl) = N[C@@H](Cc1ccc(Cl)cc1)C(=O)O; Butyryl = CCCC(=O)*
# IC50 per entry
Units required after the number.

// below: answered molecules
MOLECULE	IC50
CCCC(=O)N[C@@H](Cc1cnc[nH]1)C(=O)N[C@@H](Cc1ccc(Cl)cc1)C(=O)N[C@@H](CCCNC(=N)N)C(=O)N[C@@H](Cc1c[nH]c2ccccc12)C(=O)NCC(N)=O (Butyryl-H[Phe(4-Cl)]RWG-NH2)	300 nM
CCCC(=O)N[C@@H](Cc1c[nH]cn1)C(=O)NC(Cc1ccccc1)C(=O)N[C@@H](CCCN=C(N)N)C(=O)N[C@@H](Cc1ccc2ccccc2c1)C(=O)NCC(N)=O (single isomer, unassigned)	600 nM
CCCC(=O)N[C@@H](Cc1c[nH]cn1)C(=O)NC(Cc1ccc(OCC)cc1)C(=O)N[C@@H](CCCN=C(N)N)C(=O)N[C@@H](Cc1c[nH]c2ccccc12)C(=O)NCC(N)=O (single isomer, unassigned)	16 nM

Query: # get_value(readout='IC50', item= CCCC(=O)N[C@@H](Cc1c[nH]cn1)C(=O)N[C@@H](Cc1ccc(Br)cc1)C(=O)N[C@@H](CCCN=C(N)N)C(=O)N[C@@H](Cc1c[nH]c2ccccc12)C(=O)NCC(N)=O (Butyryl-H[Phe(4-Br)]RWG-NH2) )
Reply: 300 nM

Query: # get_value(readout='IC50', item= `CCCC(=O)N[C@@H](Cc1c[nH]cn1)C(=O)N[C@H](Cc1ccc(Cl)c(Cl)c1)C(=O)N[C@@H](CCCN=C(N)N)C(=O)N[C@@H](Cc1c[nH]c2ccccc12)C(=O)NCC(N)=O` )
Reply: 250 nM

Query: # get_value(readout='IC50', item= CCCC(=O)N[C@@H](Cc1c[nH]cn1)C(=O)NC(Cc1ccccc1)C(=O)N[C@@H](CCCN=C(N)N)C(=O)N[C@@H](Cc1cccc2ccccc12)C(=O)NCC(N)=O (single isomer, unassigned) )
Reply: 1200 nM

Query: # get_value(readout='IC50', item= `CCCC(=O)N[C@@H](Cc1c[nH]cn1)C(=O)N[C@H](Cc1cccc2ccccc12)C(=O)N[C@@H](CCCN=C(N)N)C(=O)N[C@@H](Cc1c[nH]c2ccccc12)C(=O)NCC(N)=O` )
Reply: 4000 nM

----------
Molecular target: Melanocyte-stimulating hormone receptor (Homo sapiens, UniProt Q01726)
Assay: Effective concentration against hMC1R using HEK293 cells was determined by measuring the cAMP accumulation
Square brackets hold non-standard residues; d marks the D form. Peptide text beside a SMILES is read from it. * marks the point of attachment. Phe(4-Br) = N[C@@H](Cc1ccc(Br)cc1)C(=O)O; Phe(4-Cl) = N[C@@H](Cc1ccc(Cl)cc1)C(=O)O; Butyryl = CCCC(=O)*
ATTRIBUTE MEASURED: log10 EC50 (log10 of the value in nM)
Remember, log10 of EC50, in nM.

// below: answered compounds
COMPOUND	log10 EC50
CCCC(=O)N[C@@H](Cc1c[nH]cn1)C(=O)N[C@@H](Cc1ccc(Br)cc1)C(=O)N[C@@H](CCCN=C(N)N)C(=O)N[C@@H](Cc1c[nH]c2ccccc12)C(=O)NCC(N)=O (Butyryl-H[Phe(4-Br)]RWG-NH2)	1.73
CCCC(=O)N[C@@H](Cc1cnc[nH]1)C(=O)N[C@@H](Cc1ccc(Cl)cc1)C(=O)N[C@@H](CCCNC(=N)N)C(=O)N[C@@H](Cc1c[nH]c2ccccc12)C(=O)NCC(N)=O (Butyryl-H[Phe(4-Cl)]RWG-NH2)	1.30
CCCC(=O)N[C@@H](Cc1c[nH]cn1)C(=O)N[C@H](Cc1ccc(Cl)c(Cl)c1)C(=O)N[C@@H](CCCN=C(N)N)C(=O)N[C@@H](Cc1c[nH]c2ccccc12)C(=O)NCC(N)=O	1.00
CCCC(=O)N[C@@H](Cc1cnc[nH]1)C(=O)N[C@@H](Cc1ccccc1)C(=O)N[C@@H](CCCNC(=N)N)C(=O)N[C@@H](Cc1c[nH]c2ccccc12)C(=O)NCC(N)=O	1.00
CCCC(=O)N[C@@H](Cc1cnc[nH]1)C(=O)N[C@@H](Cc1ccc(O)cc1)C(=O)N[C@@H](CCCNC(=N)N)C(=O)N[C@@H](Cc1c[nH]c2ccccc12)C(=O)NCC(N)=O (Butyryl-HYRWG-NH2)	2.26

Shift focus to the following entry.
Query: # get_value(readout='log10 EC50', item= CCCC(=O)N[C@@H](Cc1c[nH]cn1)C(=O)NC(Cc1cccs1)C(=O)N[C@@H](CCCN=C(N)N)C(=O)N[C@@H](Cc1c[nH]c2ccccc12)C(=O)NCC(N)=O (single isomer, unassigned) )
Reply: 0.60

The measured values listed here are drawn from ChEMBL document CHEMBL1136586.
